# testedOn: T1, HLA-A2/E7 (11-19) tetramer (human; HPV 16)
# T1 construct: also called E7(11-19) peptide-MHC tetramer; E7 (11-19)-loaded tetramer
# assayMethodText: tetramer flow cytometry; transfected 1:1 CD4+ and CD4+/CD8+ Jurkat-derived cells;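 note: cells transiently transfected with TCR plasmids, stained 48 h later with HLA-A*02:01 peptide-MHC tetramer plus anti-CD8 antibody, read by flow cytometry to assess CD8-independent tetramer binding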

# binder, % cells in E7 tet+/CD8- quadrant, %
measured = [
    ("TCR 41 (codon optimized, cysteine modified version) (TCR, V domains shown) V domain 1: RKEVEQDPGPFNVPEGATVAFNCTYSNSASQSFFWYRQDCRKEPKLLMSVYSSGNEDGRFTAQLNRASQYISLLIRDSKLSDSATYLCVVTFALTGGFKTIFGAGTRLFVKA V domain 2: EPEVTQTPSHQVTQMGQEVILRCVPISNHLYFYWYRQILGQKVEFLVSFYNNEISEKSEIFDDQFSVERPDGSNFTLKIRSTKLEDSAMYFCASNPRDRVSYEQYFGPGTRLTVTE", 2.41),
    ("TCR 37 (codon optimized, cysteine modified version) (TCR, V domains shown) V domain 1: ELKVEQNPLFLSMQEGKNYTIYCNYSTTSDRLYWYRQDPGKSLESLFVLLSNGAVKQEGRLMASLDTKARLSTLHITAAVHDLSATYFCAGYSGAGSYQLTFGKGTKLSVIP V domain 2: GAGVSQSPRYKVAKRGQDVALRCDPISGHVSLFWYQQALGQGPEFLTYFQNEAQLDKSGLPSDRFFAERPEGSVSTLKIQRTQQEDSAVYLCASSLLLGAYGYTFGSGTRLTVVE", 19.5),
    ("TCR 46 (codon optimized, cysteine modified version) (TCR, V domains shown) V domain 1: AQSVTQLDSQVPVFEEAPVELRCNYSSSVSVYLFWYVQYPNQGLQLLLKYLSGSTLVKGINGFEAEFNKSQTSFHLRKPSVHISDTAEYFCAVSPSSGTYKYIFGTGTRLKVLA V domain 2: GAGVSQTPSNKVTEKGKYVELRCDPISGHTALYWYRQSLGQGPEFLIYFQGTGAADDSGLPNDRFFAVRPEGSVSTLKIQRTERGDSAVYLCASSLYLGGSETQYFGPGTRLLVLE", 1.21),
]

Attribution: patent US20190225692A1
